test system: MDA-MB-435 melanoma; test: NCI-60 one-dose screen, 48 h; conditions: 10 µM unless noted
This is part of a sample that, as a whole, favours compounds with a hit. Of some 83,000 tested, about 20% had one in any assay. Calls of active or inactive are those of the source. Rule for the calls: active = growth percent below 10; inactive = the rest.
Result category, one only: Yes for active, No for inactive

Below are worked cases with known answers.
{"columns": ["compound", "testedOn", "group"],
 "data": [
  ["COc1cc(/C=C/c2cc(/C=C/c3ccc(O)c(OC)c3)n(C(=O)Nc3ccc(F)cc3)n2)ccc1O", "MDA-MB-435 melanoma", "Yes"],
  ["N#Cc1c(-c2ccccc2)cc(-c2ccccc2)n(CCCC(=O)NO)c1=O", "MDA-MB-435 melanoma", "Yes"],
  ["CCCCCCCCn1ccc2cc(NC(=O)Cn3cc(CN4CCC(C)CC4)nn3)ccc21", "MDA-MB-435 melanoma", "Yes"],
  ["N#Cc1c(NC(=O)c2cccs2)[n+]([O-])c2ccc(Cl)cc2[n+]1[O-]", "MDA-MB-435 melanoma", "No"],
  ["COc1cc(N2C(=O)[C@H](c3ccccc3)C2c2ccc(SC)cc2)cc(OC)c1OC (some centres not stated)", "MDA-MB-435 melanoma", "Yes"],
  ["CCOC(=O)c1c(C)nn(CC(O)c2ccccc2)c1NC(=O)Nc1cccc(F)c1 (configuration not stated)", "MDA-MB-435 melanoma", "No"],
  ["CN1CCCc2cc(/C=C3/SC(=S)N(CCc4ccc(O)cc4)C3=O)ccc21", "MDA-MB-435 melanoma", "No"],
  ["O=C(CCC(=O)c1nc2ncccc2[nH]1)NN1C(=O)CSC1c1ccc(Cl)cc1 (configuration not stated)", "MDA-MB-435 melanoma", "No"],
  ["FC(F)(F)c1[nH]ncc1-c1nc2c(N3CCCCC3)cc3[nH]ncc3c2c2c1CCCC2", "MDA-MB-435 melanoma", "No"],
  ["N#CCC1=NC(c2cccs2)=Nc2ccccc2S1", "MDA-MB-435 melanoma", "No"]
]}

Query :: Name the outcome recorded for C=CCN=C(N)SCCCCCCSC(N)=NCC=C in the assay.
Result :: No

Query :: Name the outcome recorded for Nc1c(C(=O)Nc2cccc3ncccc23)sc2nc3c(cc12)C(=O)CCC3 in the assay.
Result :: Yes

###

So I've got a bunch of compounds here, and I need their growth values.
test system: OVCAR-8 ovarian; assay: NCI-60 one-dose screen, 48 h (100 = growth as untreated, 0 = no growth, -100 = all killed); settings: 10 µM unless noted
This is part of a sample that, as a whole, favours compounds with a hit. Of some 83,000 tested, about 20% had one in any assay.
Give bare numbers, in %.

{"columns": ["compound", "uom", "growth"],
 "data": [
  ["COc1cc(C(=O)C(=O)c2cc(OC)c(O)c(OC)c2)cc(OC)c1O", "%", 102],
  ["CCNCc1ccc(O)c2ncccc12", "%", 23],
  ["Cc1ncc(C(=O)Nc2ccc(CN3CCN(C)CC3)c(C(F)(F)F)c2)cc1C#Cc1cnc(N)c2cnccc12", "%", 15.4]
]}

Could you tell me growth for each of these compounds? They are listed below.
1. Clc1ccc(-c2cn3ccsc3n2)c(Cl)c1Cl
2. O=C1NC(=Nc2ccc(O)cc2)S/C1=C\c1cccs1
3. CCOC(=O)n1cc(-c2nonc2-c2cn(C)c3ccccc23)c2ccccc21
4. CCCCCCCCCCCCCCCCCCOc1ccccc1CC(=O)NCC[N+]1(C)CCOCC1
5. CCOC(=O)c1c(NC(=O)c2ccc(C(C)(C)C)cc2)sc2cc(O)ccc12

Result ::
[95.7, 48.5, 51.6, 67.8, 92.7]

###

tested on: NCI-H322M lung; experiment: NCI-60 one-dose screen, 48 h (100 = growth as untreated, 0 = no growth, -100 = all killed); conditions: 10 µM unless noted
Compounds without any hit were thinned out: in the full panel of roughly 83,000, 20% have a hit.
fulfilled means recorded growth is 90% or above; not fulfilled means it is below 90%.

Below are worked cases with known answers.
{"columns": ["compound", "group"],
 "data": [
  ["Cc1ccc(C)c(-n2c(-c3ccc(Br)cc3)csc2=NC(=O)c2ccccc2F)c1", "fulfilled"],
  ["NC(=O)c1c(NC(=O)c2ccc(Cl)cc2)sc2c1CCC(=O)C2", "fulfilled"]
]}

Query :: Reported growth at or above 90%? C#CC#CC#CC#CC#CC#CC#CC#CCC1OCC(COC(=O)O[C@@H](C(=O)O[C@H]2C[C@@]3(O)[C@@H](OC(=O)c4ccccc4)[C@@H]4[C@]5(OC(C)=O)CO[C@@H]5C[C@H](O)[C@@]4(C)C(=O)[C@H](OC(C)=O)C(=C2C)C3(C)C)[C@@H](NC(=O)c2ccccc2)c2ccccc2)O1 (stereo partly specified)
Result :: not fulfilled

Query :: Reported growth at or above 90%? Cc1ccc(Nc2nc(-c3ccc(F)cc3)c(C#N)c(=O)n2C)cc1
Result :: not fulfilled

###

system: CCRF-CEM leukemia; test: NCI-60 one-dose screen, 48 h (100 = growth as untreated, 0 = no growth, -100 = all killed); settings: 10 µM unless noted
Compounds without any hit were thinned out: in the full panel of roughly 83,000, 20% have a hit. Activity calls are given as the source filed them. Rule for the calls: active = growth percent below 10; inactive = the rest.
measureName: growth

{"columns": ["compound", "reading"],
 "data": [
  ["O=C(Cn1nnc([N+](=O)[O-])n1)c1ccccc1", "58.6% (inactive)"],
  ["N=c1sc(Cc2cc(Cl)ccc2Cl)cn1CC(=O)c1ccccc1", "60% (inactive)"]
]}

In the following, a different compound is considered.
Query :: What value of growth has been recorded for this entry: CCn1cc(C(=O)N/N=C/c2ccc(Br)cc2)c(=O)c2cc(F)c(N3CCNC(C)C3)c(F)c21 (stereo not drawn)
Result :: 29.7% (inactive)

###

test system: SK-MEL-28 melanoma; assay: NCI-60 one-dose screen, 48 h (100 = growth as untreated, 0 = no growth, -100 = all killed); settings: 10 µM unless noted
The panel holds about 83,000 compounds, 20% with a hit somewhere; the sample as a whole holds those more often.
measureName: growth (%)
Give bare numbers, in %.

{"columns": ["molecule", "measureName", "reading"],
 "data": [
  ["COc1ccc(/C(C)=C(\\c2ccc(Cl)cc2)c2ccc(OCCN3CCCC3)cc2)cc1", "growth", -16.8],
  ["Cn1cc(C(=O)c2nc(-c3c[nH]c4ccc(Br)cc34)no2)c2cc(Br)ccc21", "growth", 92]
]}

Could you tell me growth for each of these molecules? They are listed below.
1. CC1(C)OC(=O)C(=Cc2cccc(Br)c2)C(=O)O1
2. CC(=O)N(Cc1ccccc1)c1nc2ccc(O)c(CN(C)C)c2s1
3. CC(O)c1ncc(/C=C2\SC(=S)N(Cc3ccccc3)C2=O)s1 (centres undefined)
4. NC(CSC(c1ccccc1)(c1ccccc1)c1ccc2c(c1)OCO2)C(=O)O (centres undefined)
5. CCOC(=O)c1c(NC(=O)CSc2n[nH]c3nc4ccccc4n23)sc(CC)c1C
6. COc1cc(-c2nc3occn3c2-c2ccnc(NCCCNS(=O)(=O)c3ccccc3)n2)ccc1F

Result ::
1. 119
2. 107
3. 92.2
4. 47.4
5. 113
6. 38

Could you tell me growth for each of these molecules? They are listed below.
1. C=CCOC(=O)C1=C(C)NC(=O)NC1c1c(Cl)n(C)c2ccccc12 (centres undefined)
2. Cc1c(Cl)cccc1C(=O)Nc1nc2c(s1)CN(C(=O)Nc1cccc(C(F)(F)F)c1)CC2
3. CC(C)(CO)N(CCO)CCO

Result ::
[99.6, 44.4, 103]

Could you tell me growth for each of these molecules? They are listed below.
1. COc1cc(C2C3=C(COC3=O)N(CCO)c3cc4c(cc32)OCCO4)cc(OC)c1OC (centres undefined)
2. O=C(CCl)Nc1ccc2c(Nc3cc(O)ccc3Cl)ncnc2c1
3. COc1ccc(OC)c(-c2cn3nc(-c4c[nH]c5ccc(Br)cc45)sc3n2)c1
4. O=C(Nc1ccc(F)cc1)Nc1ccccc1CNc1nc(Nc2ccc(OCCN3CCCC3)cc2)ncc1Cl
5. COc1ccc(C/C(C)=C(\c2ccc(O)cc2)c2ccc(OCCN3CCCC3)cc2)cc1
6. C/C(=N\Nc1nc(C)cs1)c1cc2ccccc2o1
7. CC(C)[C@@]12C[C@@H](OC(=O)COC(=O)c3ccccc3)[C@@](C)(O1)[C@@H]1CC[C@@H](C)[C@H]1[C@@H]2OC(=O)/C=C/c1ccccc1
8. O=C(Nc1nc(C(=O)N2CCN(C(c3ccccc3)c3ccccc3)CC2)cs1)c1ccc(NC2CCCCC2)c([N+](=O)[O-])c1

Result ::
1: 42.8; 2: -66.4; 3: 59.5; 4: -13.3; 5: 97; 6: 110; 7: 107; 8: 100
